Species: Rattus norvegicus
assay_info: Open TG-GATES - Regimen: Daily Repeat
Format: toxicity, organism-based, Sprague-Dawley
Set-up: regimen Daily Repeat, gender Male, age 6 weeks
experimental_setup: in vivo, po, 100 mg/kg, […], tissue Plasma, route gavage, dose level Low, time 14 day
Kindly apply the following: YES if AST is less than 70 IU/L, NO in every other case.

> print(dat)
                        compound.structure  class.name
1                     CCOc1ccc(NC(C)=O)cc1         YES
2             CN/C(=N/CCSCc1nc[nH]c1C)NC#N          NO
3  Cc1nnc2n1-c1ccc(Cl)cc1C(c1ccccc1Cl)=NC2          NO
4  CNC(=C[N+](=O)[O-])NCCSCc1ccc(CN(C)C)o1         YES
